# EXPERIMENTAL DETAILS: recombinant barcode read abundance after kanamycin selection (control-corrected) (log10(CPM+1)); higher = more efficient recombination; sequences stand for … in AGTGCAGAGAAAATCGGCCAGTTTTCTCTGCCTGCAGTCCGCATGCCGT…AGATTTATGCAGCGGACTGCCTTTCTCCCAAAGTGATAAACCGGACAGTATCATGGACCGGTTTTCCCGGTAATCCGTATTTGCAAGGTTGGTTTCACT; site = the 11-nt target;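 also: IS621 recombinase and bridge RNA in Escherichia coli cells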
Class membership depends on recombinant barcode read abundance (log10) alone; the intervals are bucket 1: < 0.06; bucket 2: ≥ 0.06 and < 0.2; bucket 3: ≥ 0.2

CTGTGAGCTTGGGTTCTAACCTGTTGCAG (site AACAATACTAG) = bucket 2
AATAGGCCTTGGGTTCTAACCTGTTGCGT (site AATTGGCCTAC) = bucket 2

Which bin should I file TTGTCTCCTTGGGTTCTAACCTGTTGCCT (site ATGTCTCCTAG) under?
bucket 2

Which bin should I file TGGTATCCTTGGGTTCTAACCTGTTGCCT (site TGGTATTCTAG) under?
bucket 3

Which bin should I file TAGGCTACTTGGGTTCTAACCTGTTGCAC (site TAGGCTACTGT) under?
bucket 3

Which bin should I file GATTATACTTGGGTTCTAACCTGTTGCTT (site TGCGGAGCTCG) under?
bucket 1

Which bin should I file AGGCAGACTTGGGTTCTAACCTGTTGCCA (site AGGAAGACTTG) under?
bucket 1

Which bin should I file CTGACTTCTTGGGTTCTAACCTGTTGCCT (site CCGACTTCTAG) under?
bucket 1

Which bin should I file CCTACATCTTGGGTTCTAACCTGTTGCCT (site CCTACAACTAG) under?
bucket 2

Which bin should I file GAAGTACCTTGGGTTCTAACCTGTTGCCT (site AAAGTACCTAG) under?
bucket 3

Which bin should I file TAACCTACTTGGGTTCTAACCTGTTGCTA (site GGTGAGGCTAT) under?
bucket 2

Which bin should I file ATGAGGCCTTGGGTTCTAACCTGTTGCTA (site TCAGAAGCTCG) under?
bucket 2

Which bin should I file ACAAACCCTTGGGTTCTAACCTGTTGCCT (site ACAAATCCTAG) under?
bucket 1

Which bin should I file GGAGCGTCTTGGGTTCTAACCTGTTGCGT (site GGCGCGTCTAT) under?
bucket 3

Which bin should I file GGCGGCCCTTGGGTTCTAACCTGTTGCGG (site GGCGGCCCTCC) under?
bucket 3

Which bin should I file TTCTACCCTTGGGTTCTAACCTGTTGCCT (site TGCTACCCTAG) under?
bucket 2

Cited source for all entries: the supplement of paper PMC11208160
